Values compiled from the supplement of paper PMC12076712.

subject.of.test: FGR (UniProt P09769)
assay.overview: pIC50, kinobeads binding competition
measurement.parameters: cell material: Lysate mix
// pIC50 lookup, one value per entry
Format: numeric value only, no unit, no commentary.

These solved cases illustrate the format of a correct answer.
CCNC(=O)c1cc(Nc2cc(C)[nH]n2)nc(N2CCN(Cc3ccc(S(=O)(=O)F)cc3)CC2)n1: 5.92
C#CCNC(=O)c1cc(Nc2cc(C)[nH]n2)nc(N2CCN(Cc3ccc(S(=O)(=O)F)cc3)CC2)n1: 5.51
C#CCNC(=O)c1cc(Nc2cc(C3CC3)[nH]n2)nc(N2CCN(Cc3ccc(S(=O)(=O)F)cc3)CC2)n1: 6.2

Now consider a different molecule.
Item CCNC(=O)c1cc(Nc2cc(C3CC3)[nH]n2)nc(N2CCN(Cc3ccc(S(=O)(=O)F)cc3)CC2)n1 has what recorded pIC50?
5.92

---

Catalogue of pIC50 readings, one per entry.
subject.of.test: PRKX (UniProt P51817)
Sequence (whole entry): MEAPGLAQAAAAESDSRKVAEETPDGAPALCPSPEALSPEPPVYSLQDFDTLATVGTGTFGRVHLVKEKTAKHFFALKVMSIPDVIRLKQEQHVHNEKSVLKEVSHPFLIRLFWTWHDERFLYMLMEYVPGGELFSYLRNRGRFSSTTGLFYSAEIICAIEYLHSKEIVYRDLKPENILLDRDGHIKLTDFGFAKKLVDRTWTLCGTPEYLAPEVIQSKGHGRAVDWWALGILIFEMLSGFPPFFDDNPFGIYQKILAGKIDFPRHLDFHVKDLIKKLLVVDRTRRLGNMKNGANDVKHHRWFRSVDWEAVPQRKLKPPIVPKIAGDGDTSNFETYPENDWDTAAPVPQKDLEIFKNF
assay.overview: pIC50, kinobeads binding competition
measurement.parameters: cell material: Lysate mix

Entry CCNC(=O)c1cc(Nc2cc(C)[nH]n2)nc(N2CCN(Cc3ccc(S(=O)(=O)F)cc3)CC2)n1 has what pIC50?
< 4.52

I would be grateful if you could share the reported pIC50 for C#CCNC(=O)c1cc(Nc2cc(C)[nH]n2)nc(N2CCN(Cc3ccc(S(=O)(=O)F)cc3)CC2)n1 .
< 4.52

Consider the compound shown here: O=C(NCCNC(=O)c1cc(Nc2cc(C3CC3)[nH]n2)nc(N2CCN(Cc3ccc(S(=O)(=O)F)cc3)CC2)n1)OC1CC/C=C/CCC1 (stereo unspecified) What is its recorded pIC50?
< 4.52

So what does the record say about pIC50 for Cc1cc(Nc2cc(C(=O)NCCNC(=O)OC3CC/C=C/CCC3)nc(N3CCN(Cc4ccc(S(=O)(=O)F)cc4)CC3)n2)n[nH]1 (stereo unspecified) ?
< 4.52

Given the entry CCNC(=O)c1cc(Nc2cc(C3CC3)[nH]n2)nc(N2CCN(Cc3ccc(S(=O)(=O)F)cc3)CC2)n1 , report its measured pIC50.
5

Fill blank: measured pIC50 of the compound C#CCNC(=O)c1cc(Nc2cc(C3CC3)[nH]n2)nc(N2CCN(Cc3ccc(S(=O)(=O)F)cc3)CC2)n1 is ____.
5.26

---

Recorded pIC50, one value per entry.
subject.of.test: UniProtKB O95835
Sequence (O95835 whole entry): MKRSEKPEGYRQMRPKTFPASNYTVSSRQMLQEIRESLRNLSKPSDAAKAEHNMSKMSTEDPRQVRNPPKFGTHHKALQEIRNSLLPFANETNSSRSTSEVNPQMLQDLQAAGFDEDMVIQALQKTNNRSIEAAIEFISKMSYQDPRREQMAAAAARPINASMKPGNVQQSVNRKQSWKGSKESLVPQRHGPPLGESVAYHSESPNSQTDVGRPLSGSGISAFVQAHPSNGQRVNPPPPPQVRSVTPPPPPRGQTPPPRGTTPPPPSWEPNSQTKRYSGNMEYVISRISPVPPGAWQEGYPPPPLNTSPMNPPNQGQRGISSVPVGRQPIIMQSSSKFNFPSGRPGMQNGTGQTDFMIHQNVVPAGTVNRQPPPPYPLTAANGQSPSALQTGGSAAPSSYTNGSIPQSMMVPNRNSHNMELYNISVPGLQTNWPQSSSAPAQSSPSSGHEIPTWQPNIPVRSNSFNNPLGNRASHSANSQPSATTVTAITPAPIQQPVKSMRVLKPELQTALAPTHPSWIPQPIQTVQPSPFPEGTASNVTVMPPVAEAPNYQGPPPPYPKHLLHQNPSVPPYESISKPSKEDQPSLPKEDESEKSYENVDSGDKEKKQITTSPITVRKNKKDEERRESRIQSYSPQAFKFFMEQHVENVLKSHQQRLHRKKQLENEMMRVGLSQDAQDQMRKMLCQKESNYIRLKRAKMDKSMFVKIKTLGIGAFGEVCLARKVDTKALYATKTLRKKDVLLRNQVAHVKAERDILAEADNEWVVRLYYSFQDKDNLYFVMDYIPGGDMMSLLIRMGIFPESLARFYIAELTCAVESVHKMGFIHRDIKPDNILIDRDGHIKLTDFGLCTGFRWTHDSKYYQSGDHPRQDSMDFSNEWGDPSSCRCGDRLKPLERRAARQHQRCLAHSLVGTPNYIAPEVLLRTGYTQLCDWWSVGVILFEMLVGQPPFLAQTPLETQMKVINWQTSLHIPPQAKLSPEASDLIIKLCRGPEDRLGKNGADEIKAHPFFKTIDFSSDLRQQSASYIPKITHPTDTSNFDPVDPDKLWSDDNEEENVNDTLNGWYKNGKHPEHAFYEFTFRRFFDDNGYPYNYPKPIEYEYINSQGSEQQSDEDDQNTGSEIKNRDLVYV
assay.overview: pIC50, kinobeads binding competition
measurement.parameters: cell material: Lysate mix
In your answer, state the number alone without any accompanying words.

For orientation, consider the following solved cases.
C#CCNC(=O)c1cc(Nc2cc(C)[nH]n2)nc(N2CCN(Cc3ccc(S(=O)(=O)F)cc3)CC2)n1: 4.65
C#CCNC(=O)c1cc(Nc2cc(C3CC3)[nH]n2)nc(N2CCN(Cc3ccc(S(=O)(=O)F)cc3)CC2)n1: 5.56

What pIC50 value was documented for this compound, CCNC(=O)c1cc(Nc2cc(C3CC3)[nH]n2)nc(N2CCN(Cc3ccc(S(=O)(=O)F)cc3)CC2)n1 ?
5.3

---

subject.of.test: UniProt O95382
Sequence (O95382 whole entry): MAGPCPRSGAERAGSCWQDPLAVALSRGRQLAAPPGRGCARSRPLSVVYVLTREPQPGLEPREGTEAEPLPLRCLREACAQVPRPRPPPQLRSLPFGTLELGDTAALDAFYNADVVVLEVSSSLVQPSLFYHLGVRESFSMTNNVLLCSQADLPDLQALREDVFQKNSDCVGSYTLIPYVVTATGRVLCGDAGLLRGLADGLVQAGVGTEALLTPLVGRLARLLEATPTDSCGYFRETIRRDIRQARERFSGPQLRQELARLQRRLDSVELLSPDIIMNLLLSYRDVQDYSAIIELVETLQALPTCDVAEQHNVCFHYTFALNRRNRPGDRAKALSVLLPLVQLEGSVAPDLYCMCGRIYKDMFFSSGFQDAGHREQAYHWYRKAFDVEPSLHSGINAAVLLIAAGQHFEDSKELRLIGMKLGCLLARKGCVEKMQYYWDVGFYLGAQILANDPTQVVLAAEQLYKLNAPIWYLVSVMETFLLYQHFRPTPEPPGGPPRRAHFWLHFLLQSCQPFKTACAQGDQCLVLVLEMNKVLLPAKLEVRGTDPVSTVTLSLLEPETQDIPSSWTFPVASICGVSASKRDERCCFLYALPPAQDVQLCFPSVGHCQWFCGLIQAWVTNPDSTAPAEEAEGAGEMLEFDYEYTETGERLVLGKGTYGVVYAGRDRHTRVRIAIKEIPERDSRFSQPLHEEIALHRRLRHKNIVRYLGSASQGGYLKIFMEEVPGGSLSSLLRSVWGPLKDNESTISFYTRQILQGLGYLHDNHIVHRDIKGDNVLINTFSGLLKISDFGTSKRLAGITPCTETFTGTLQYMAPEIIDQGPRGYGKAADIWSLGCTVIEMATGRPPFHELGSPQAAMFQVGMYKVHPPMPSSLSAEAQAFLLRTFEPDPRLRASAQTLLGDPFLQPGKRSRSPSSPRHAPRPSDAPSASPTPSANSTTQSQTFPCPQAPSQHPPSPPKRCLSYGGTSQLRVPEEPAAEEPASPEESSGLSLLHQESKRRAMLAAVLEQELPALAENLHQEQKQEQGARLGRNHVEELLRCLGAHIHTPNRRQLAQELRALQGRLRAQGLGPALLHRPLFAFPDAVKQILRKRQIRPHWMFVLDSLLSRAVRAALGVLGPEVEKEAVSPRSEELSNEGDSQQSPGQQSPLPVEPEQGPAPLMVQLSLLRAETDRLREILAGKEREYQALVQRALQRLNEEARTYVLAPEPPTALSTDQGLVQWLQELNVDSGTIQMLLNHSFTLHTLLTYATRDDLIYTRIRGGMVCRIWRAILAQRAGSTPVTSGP
assay.overview: pIC50, kinobeads binding competition
measurement.parameters: cell material: Lysate mix
assay.endpoint: pIC50

CCNC(=O)c1cc(Nc2cc(C3CC3)[nH]n2)nc(N2CCN(Cc3ccc(S(=O)(=O)F)cc3)CC2)n1: < 4.52

Which pIC50 reading was recorded for the compound CCNC(=O)c1cc(Nc2cc(C)[nH]n2)nc(N2CCN(Cc3ccc(S(=O)(=O)F)cc3)CC2)n1 ?
4.66

Look up pIC50: C#CCNC(=O)c1cc(Nc2cc(C3CC3)[nH]n2)nc(N2CCN(Cc3ccc(S(=O)(=O)F)cc3)CC2)n1
< 4.52

Fill in: pIC50 of C#CCNC(=O)c1cc(Nc2cc(C)[nH]n2)nc(N2CCN(Cc3ccc(S(=O)(=O)F)cc3)CC2)n1 is ___
4.63

Suppose we examine the compound O=C(NCCNC(=O)c1cc(Nc2cc(C3CC3)[nH]n2)nc(N2CCN(Cc3ccc(S(=O)(=O)F)cc3)CC2)n1)OC1CC/C=C/CCC1 (stereo unspecified) ; what pIC50 value has been reported?
< 4.52

What measured pIC50 goes with Cc1cc(Nc2cc(C(=O)NCCNC(=O)OC3CC/C=C/CCC3)nc(N3CCN(Cc4ccc(S(=O)(=O)F)cc4)CC3)n2)n[nH]1 (stereo unspecified) ?
< 4.52

---

subject.of.test: UniProt P35916
assay.overview: pIC50, kinobeads binding competition
measurement.parameters: cell material: Lysate mix
Entries annotated with measured pIC50

C#CCNC(=O)c1cc(Nc2cc(C)[nH]n2)nc(N2CCN(Cc3ccc(S(=O)(=O)F)cc3)CC2)n1: < 4.52
CCNC(=O)c1cc(Nc2cc(C3CC3)[nH]n2)nc(N2CCN(Cc3ccc(S(=O)(=O)F)cc3)CC2)n1: < 4.52
C#CCNC(=O)c1cc(Nc2cc(C3CC3)[nH]n2)nc(N2CCN(Cc3ccc(S(=O)(=O)F)cc3)CC2)n1: < 4.52
Cc1cc(Nc2cc(C(=O)NCCNC(=O)OC3CC/C=C/CCC3)nc(N3CCN(Cc4ccc(S(=O)(=O)F)cc4)CC3)n2)n[nH]1 (stereo unspecified): < 4.52
O=C(NCCNC(=O)c1cc(Nc2cc(C3CC3)[nH]n2)nc(N2CCN(Cc3ccc(S(=O)(=O)F)cc3)CC2)n1)OC1CC/C=C/CCC1 (stereo unspecified): < 4.52

Record request: pIC50 value, item CCNC(=O)c1cc(Nc2cc(C)[nH]n2)nc(N2CCN(Cc3ccc(S(=O)(=O)F)cc3)CC2)n1
< 4.52

---

subject.of.test: UniProt Q92918
Sequence (Q92918 whole entry, looked up): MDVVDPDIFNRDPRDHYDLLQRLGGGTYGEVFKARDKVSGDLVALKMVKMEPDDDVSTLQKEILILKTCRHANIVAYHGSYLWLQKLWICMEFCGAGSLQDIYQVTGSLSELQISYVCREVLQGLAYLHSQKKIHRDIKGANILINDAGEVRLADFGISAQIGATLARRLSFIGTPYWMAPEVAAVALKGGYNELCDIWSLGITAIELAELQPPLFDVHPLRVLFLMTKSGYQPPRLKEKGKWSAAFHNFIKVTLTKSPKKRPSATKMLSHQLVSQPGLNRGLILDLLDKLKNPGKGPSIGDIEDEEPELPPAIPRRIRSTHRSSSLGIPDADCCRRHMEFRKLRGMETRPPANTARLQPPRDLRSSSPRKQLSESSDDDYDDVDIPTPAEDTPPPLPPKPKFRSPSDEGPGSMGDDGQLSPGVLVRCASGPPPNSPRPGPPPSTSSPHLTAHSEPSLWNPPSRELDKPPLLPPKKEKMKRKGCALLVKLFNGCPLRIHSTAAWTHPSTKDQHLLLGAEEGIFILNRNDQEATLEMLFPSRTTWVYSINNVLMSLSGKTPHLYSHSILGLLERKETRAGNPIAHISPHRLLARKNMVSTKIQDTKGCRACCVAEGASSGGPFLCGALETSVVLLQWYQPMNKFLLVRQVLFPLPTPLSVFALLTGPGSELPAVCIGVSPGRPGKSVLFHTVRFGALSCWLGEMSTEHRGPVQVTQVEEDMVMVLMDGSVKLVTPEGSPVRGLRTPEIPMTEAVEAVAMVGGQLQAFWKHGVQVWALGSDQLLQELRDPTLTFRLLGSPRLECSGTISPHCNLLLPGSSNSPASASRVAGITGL
assay.overview: pIC50, kinobeads binding competition
measurement.parameters: cell material: Lysate mix
assay.endpoint: pIC50
Please give the numeric answer without any surrounding text.

The examples below pair each entry with its known result.
C#CCNC(=O)c1cc(Nc2cc(C)[nH]n2)nc(N2CCN(Cc3ccc(S(=O)(=O)F)cc3)CC2)n1: 4.77
CCNC(=O)c1cc(Nc2cc(C3CC3)[nH]n2)nc(N2CCN(Cc3ccc(S(=O)(=O)F)cc3)CC2)n1: 5.8
CCNC(=O)c1cc(Nc2cc(C)[nH]n2)nc(N2CCN(Cc3ccc(S(=O)(=O)F)cc3)CC2)n1: 4.78

GET /values?readout=pIC50&item= C#CCNC(=O)c1cc(Nc2cc(C3CC3)[nH]n2)nc(N2CCN(Cc3ccc(S(=O)(=O)F)cc3)CC2)n1
5.9

---

subject.of.test: UniProt P17252
assay.overview: pIC50, kinobeads binding competition
measurement.parameters: cell material: Lysate mix
assay.endpoint: pIC50

CCNC(=O)c1cc(Nc2cc(C)[nH]n2)nc(N2CCN(Cc3ccc(S(=O)(=O)F)cc3)CC2)n1: < 4.52
C#CCNC(=O)c1cc(Nc2cc(C)[nH]n2)nc(N2CCN(Cc3ccc(S(=O)(=O)F)cc3)CC2)n1: < 4.52
C#CCNC(=O)c1cc(Nc2cc(C3CC3)[nH]n2)nc(N2CCN(Cc3ccc(S(=O)(=O)F)cc3)CC2)n1: < 4.52
O=C(NCCNC(=O)c1cc(Nc2cc(C3CC3)[nH]n2)nc(N2CCN(Cc3ccc(S(=O)(=O)F)cc3)CC2)n1)OC1CC/C=C/CCC1 (stereo unspecified): < 4.52
CCNC(=O)c1cc(Nc2cc(C3CC3)[nH]n2)nc(N2CCN(Cc3ccc(S(=O)(=O)F)cc3)CC2)n1: 5.11

# evaluate next
Give its pIC50 value. Item: Cc1cc(Nc2cc(C(=O)NCCNC(=O)OC3CC/C=C/CCC3)nc(N3CCN(Cc4ccc(S(=O)(=O)F)cc4)CC3)n2)n[nH]1 (stereo unspecified)
< 4.52

---

subject.of.test: UniProt:Q9Y6R4
Sequence (Q9Y6R4 whole entry): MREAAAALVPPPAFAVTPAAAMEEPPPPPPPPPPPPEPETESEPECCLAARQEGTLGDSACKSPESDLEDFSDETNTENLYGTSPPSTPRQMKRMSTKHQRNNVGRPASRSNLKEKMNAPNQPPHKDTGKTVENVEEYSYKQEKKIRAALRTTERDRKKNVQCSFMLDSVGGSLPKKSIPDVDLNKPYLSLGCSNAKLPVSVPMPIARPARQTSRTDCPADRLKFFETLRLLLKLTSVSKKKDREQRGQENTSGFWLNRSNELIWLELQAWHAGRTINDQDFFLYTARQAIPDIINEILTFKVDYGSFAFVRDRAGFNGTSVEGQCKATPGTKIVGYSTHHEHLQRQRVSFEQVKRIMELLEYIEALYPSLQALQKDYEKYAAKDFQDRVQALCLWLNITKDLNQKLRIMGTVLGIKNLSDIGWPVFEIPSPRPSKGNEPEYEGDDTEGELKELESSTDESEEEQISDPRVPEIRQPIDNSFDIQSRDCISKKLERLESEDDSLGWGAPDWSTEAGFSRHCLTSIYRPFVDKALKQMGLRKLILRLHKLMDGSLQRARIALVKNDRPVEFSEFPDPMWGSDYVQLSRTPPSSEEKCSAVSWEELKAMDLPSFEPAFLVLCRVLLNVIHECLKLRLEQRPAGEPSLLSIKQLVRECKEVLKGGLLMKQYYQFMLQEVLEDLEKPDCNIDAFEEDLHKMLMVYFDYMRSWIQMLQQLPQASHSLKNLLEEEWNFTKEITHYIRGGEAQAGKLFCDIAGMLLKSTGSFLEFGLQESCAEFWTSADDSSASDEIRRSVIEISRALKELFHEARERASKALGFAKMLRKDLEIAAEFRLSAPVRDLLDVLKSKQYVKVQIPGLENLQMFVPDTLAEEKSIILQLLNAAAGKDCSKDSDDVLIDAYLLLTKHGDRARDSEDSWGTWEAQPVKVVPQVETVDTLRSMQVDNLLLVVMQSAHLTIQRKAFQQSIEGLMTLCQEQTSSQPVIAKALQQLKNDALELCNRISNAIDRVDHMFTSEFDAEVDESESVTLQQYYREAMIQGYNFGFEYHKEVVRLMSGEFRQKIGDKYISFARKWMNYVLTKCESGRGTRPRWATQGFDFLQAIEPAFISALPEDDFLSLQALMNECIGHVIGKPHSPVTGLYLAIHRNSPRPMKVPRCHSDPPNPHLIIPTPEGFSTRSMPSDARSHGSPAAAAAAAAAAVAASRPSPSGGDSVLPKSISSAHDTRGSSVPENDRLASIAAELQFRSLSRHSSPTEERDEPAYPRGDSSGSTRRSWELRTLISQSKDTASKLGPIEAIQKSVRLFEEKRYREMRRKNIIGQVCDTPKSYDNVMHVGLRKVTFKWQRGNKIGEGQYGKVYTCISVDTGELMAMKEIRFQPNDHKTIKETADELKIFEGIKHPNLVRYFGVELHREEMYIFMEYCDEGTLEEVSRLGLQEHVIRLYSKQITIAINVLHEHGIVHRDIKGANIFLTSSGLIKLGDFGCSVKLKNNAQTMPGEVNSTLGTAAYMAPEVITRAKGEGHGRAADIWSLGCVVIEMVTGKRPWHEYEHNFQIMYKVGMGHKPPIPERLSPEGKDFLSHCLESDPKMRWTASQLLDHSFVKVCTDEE
assay.overview: pIC50, kinobeads binding competition
measurement.parameters: cell material: Lysate mix
The entries below come with measured pIC50 values attached.
Please reply with the number alone, leaving off any unit.

Worked cases, pIC50 given:
CCNC(=O)c1cc(Nc2cc(C)[nH]n2)nc(N2CCN(Cc3ccc(S(=O)(=O)F)cc3)CC2)n1: 4.8
C#CCNC(=O)c1cc(Nc2cc(C)[nH]n2)nc(N2CCN(Cc3ccc(S(=O)(=O)F)cc3)CC2)n1: 4.88
C#CCNC(=O)c1cc(Nc2cc(C3CC3)[nH]n2)nc(N2CCN(Cc3ccc(S(=O)(=O)F)cc3)CC2)n1: 5.74

Field: next molecule
// pIC50 lookup, key: CCNC(=O)c1cc(Nc2cc(C3CC3)[nH]n2)nc(N2CCN(Cc3ccc(S(=O)(=O)F)cc3)CC2)n1
5.61
